Where do these numbers come from? They come from patent US20100278835A1.

Tested on: RSV RSS strain
Experiment description: ELISA assay of antiviral activity against RSV (reduction in RSV protein expression)
Format: cell-based
Test context: Hep-2 cells infected with RSV RSS strain, multiplicity of infection 0.02, 3 days; concentration required to inhibit RSV protein expression by 50%
Recorded metric: pIC50
Numbers only, as −log10 of the molar value.

The examples below pair each entry with its known result.
{"Molecule": "CC(C)CCN1Cc2ccccc2N(Cc2nc3cc(CN)ccc3n2CCC(C)C)C1=O", "Target or system": "RSV RSS strain", "pIC50": 8.68}
{"Molecule": "CC(C)CCn1c(CN2C(=O)N(CC3CCCCC3)Cc3ccccc32)nc2cc(CN)ccc21", "Target or system": "RSV RSS strain", "pIC50": 5.54}
{"Molecule": "CC(C)CCn1c(CN2C(=O)N(CCCN3CCCC3)Cc3ccccc32)nc2cc(CN)ccc21", "Target or system": "RSV RSS strain", "pIC50": 7.86}

Problem: Could you tell me which pIC50 is on file for CC(C)CCn1c(CN2C(=O)N(C3CC3)C(C)c3ccccc32)nc2cc(C(=N)N)ccc21 (stereo not shown) ?
Result: 8.08

---

Experiment description: Thermodynamic solubility
Assay type: physicochemical
Test context: aqueous buffer, thermodynamic from solid; 0.1M phosphate buffer pH 7.4, 25° C., 24 h, HPLC-UV
Kind request: treat 800 µM as inclusive, so solubility thermodynamic at 24 h at 800 µM or higher is class 1, anything lower is class 0.

Here are 4 compounds together with their reported answers.
{"Compound": "CC(C)CCn1c(CN2C(=O)N(C3CC3)Cc3c(F)cccc32)nc2cc(CN)ccc21", "Label": "class 0"}
{"Compound": "NCc1ccc2c(c1)nc(CN1C(=O)N(C3CC3)Cc3ccccc31)n2CCCC(F)(F)F", "Label": "class 0"}
{"Compound": "NCc1ccc2c(c1)nc(Cn1c(=O)n(C3CC3)c(=O)c3ccccc31)n2CCCC(F)(F)F [reference compound]", "Label": "class 0"}
{"Compound": "COCCN1Cc2ccccc2N(Cc2nc3cc(CN)ccc3n2CCC(C)C)C1=O", "Label": "class 1"}

Problem: Check if solubility thermodynamic at 24 h >= 800 µM (inclusive). Item: Cc1cc2c(cc1CN)nc(CN1C(=O)N(C3CC3)Cc3ccccc31)n2CCC(C)C
Result: class 1

Problem: Check if solubility thermodynamic at 24 h >= 800 µM (inclusive). Item: CC(C)CCn1c(CN2C(=O)N(C3CC3)C(C)c3ccccc32)nc2cc(CN)ccc21 (stereo not drawn)
Result: class 0

---

Experiment description: Thermodynamic solubility
Format: physicochemical
Test context: aqueous buffer, thermodynamic from solid; 0.1M phosphate buffer pH 7.4, 25° C., 24 h, HPLC-UV
Kind request: treat 800 µM as inclusive, so solubility thermodynamic at 24 h at 800 µM or higher is T, anything lower is F.

{"Molecule": "CC(C)CCn1c(CN2C(=O)N(C)Cc3ccccc32)nc2cc(CN)ccc21", "Label": "T"}
{"Molecule": "CC(C)CCn1c(CN2C(=O)N(C3CC3)Cc3ccccc32)nc2cc(CN)ccc21", "Label": "T"}
{"Molecule": "COCCn1c(=O)c2ccccc2n(Cc2nc3cc(CN)ccc3n2CCC(C)C)c1=O [reference compound]", "Label": "F"}
{"Molecule": "CC(C)CCn1c(Cn2c(=O)n(C)c(=O)c3ccccc32)nc2cc(CN)ccc21 [reference compound]", "Label": "F"}

In the following, a different molecule is considered.
Problem: Check if solubility thermodynamic at 24 h >= 800 µM (inclusive). Item: CC(C)CCn1c(Cn2c(=O)n(C3CC3)c(=O)c3ccccc32)nc2cc(CN)ccc21 [reference compound]
Result: F
